Test system: EKVX NSCLC
Test: NCI tumour cell line growth inhibition, 48 h
PARAMETER MEASURED: TGI

Some entries whose results are on file:
>  <MOLECULE>
CCOC(=O)c1c(C)n2c(=O)cc(C)c3c(OC(C)=O)c(OC(C)=O)cc1c32

>  <TGI>
17.8 µM

$$$$
>  <MOLECULE>
N=C(N)n1[nH]c2c(c1=O)CCCC2

>  <TGI>
> 100 µM

$$$$
>  <MOLECULE>
CCc1c(Cl)nc(Cl)nc1Cl

>  <TGI>
1.94 µM

$$$$
>  <MOLECULE>
O=C1/C(=C\c2coc3ccccc3c2=O)c2ccccc2N1c1c(Cl)cccc1Cl

>  <TGI>
> 100 µM

$$$$
>  <MOLECULE>
CC1OC(OC2CC(O)C3(CO)C4C(O)CC5(C)C(C6=CC(=O)OC6)CCC5(O)C4CCC3(O)C2)C(O)C(O)C1O (stereo not given)

>  <TGI>
< 0.0142 µM

$$$$
>  <MOLECULE>
CN(C)CCCNc1nccc(-c2c(-c3ccc(F)cc3)nn3cc(C(F)(F)F)ccc23)n1

>  <TGI>
> 25 µM

$$$$
>  <MOLECULE>
CC(=O)OC(C)(C)N=Nc1ccc(Br)cc1

>  <TGI>
> 100 µM

$$$$
>  <MOLECULE>
COc1ccc(C2=NN(c3ccccc3)C(c3cc4cc(Br)ccc4nc3Cl)C2)cc1 (stereo not given)

>  <TGI>
> 25 µM

$$$$

### Prompt # value lookup — system EKVX NSCLC, readout TGI, item CCCC(=O)OC[n+]1cccc(-c2c(COC(=O)NC(C)C)c(COC(=O)NC(C)C)c3n2CCC3)c1
### Response > 100 µM

### Prompt Recall the recorded TGI for CCOC(=O)C(=O)N=Nc1nc2c(O)c3ccccc3c(O)c2s1 with EKVX NSCLC and state it.
### Response 19.4 µM

---

Test system: M14 melanoma
Experiment: NCI tumour cell line growth inhibition, 48 h; in the data active means GI50 below about 0.43 µM; inactive means the rest
Outcomes you can answer with include only these: active, inactive

Worked examples follow.
>  <COMPOUND>
COc1ccc(-c2cc(/C=C3\C(=O)Nc4ccc(OC)cc43)[nH]n2)cc1

>  <CLASS NAME>
inactive

$$$$
>  <COMPOUND>
C=CCN(/C=C1\C(=O)O[C@H](COC)[C@@]2(C)C1=C(O)C(=O)C1=C2[C@H](OC(C)=O)C[C@]2(C)C(=O)CC[C@@H]12)CC=C

>  <CLASS NAME>
inactive

$$$$

### Prompt Query: recorded result category for CCOC(=O)C1=C(C)NC2SC(=O)/C(=C\c3ccccc3)N2C1c1ccccc1 (stereo not drawn) in this test
### Response inactive

### Prompt Lab log entry: O=C1C(Cl)=C(Nc2cccc(O)c2)C(=O)N1c1ccc(Cl)c(Cl)c1 — outcome as called in the assay?
### Response inactive

### Prompt I would be grateful if you could indicate the recorded call for CCOC(=O)c1c(C)n2c(=O)cc(C)c3c(OC(C)=O)c(OC(C)=O)cc1c32 .
### Response inactive

### Prompt Please let me know the test result on file for COC(=O)[C@@]1(C)CC[C@]2(C)CC[C@]3(C)C4=CC=C5C(=CC(=O)C(O)=C5C)[C@]4(C)CC[C@@]3(C)[C@@H]2C1 .
### Response active

### Prompt How did this test come out for CC(=O)OCC1OC(OC2=C(CC=C(Cl)Cl)C(=O)c3ccccc3C2=O)C(OC(C)=O)C(OC(C)=O)C1OC(C)=O (stereo not drawn) ?
### Response inactive

### Prompt How was COc1cccc(C2NC(=S)NC(C)=C2C(=O)Nc2ccc(F)c(Cl)c2)c1 (stereo not drawn) classified in this test?
### Response inactive

---

System: T-47D breast
Assay: NCI tumour cell line growth inhibition, 48 h
Reported GI50 values for the following molecules.

### Prompt Quick check: GI50 of COc1ccc(/C=C/c2cc(N3CCOCC3)c3cc(F)c(F)cc3n2)cc1OC ?
### Response 0.449 µM

### Prompt # GI50 lookup, item COc1ccc(Cc2cnc(NC(=O)c3sc4ccccc4c3Cl)s2)cc1
### Response 0.768 µM

### Prompt Recorded GI50 of N#Cc1c(-c2ccccc2)cc(-c2ccccc2)n(CCCCC(=O)NO)c1=O , please.
### Response 1.93 µM

---

Test system: SK-OV-3 ovarian
Test: NCI tumour cell line growth inhibition, 48 h
PARAMETER MEASURED: TGI

>  <MOLECULE>
COc1c(CNC(=O)CCl)cc2[nH]c(C)cc2c1CNC(=O)CCl

>  <TGI>
86.4 µM

$$$$

### Prompt Can you look up TGI on SK-OV-3 ovarian for N#CCC(=O)N/N=C1\C(=O)N(c2ccc(Cl)cc2)C(=O)C(=O)C1c1nc2ccccc2o1 (centres undefined) ?
### Response > 100 µM

### Prompt Requested read-out TGI, target or system SK-OV-3 ovarian, entry O=C(O)c1cc(=O)[nH]c(=S)[nH]1
### Response > 100 µM

### Prompt # returns recorded TGI (system: SK-OV-3 ovarian) for O=c1cc(CC(O)(C(F)(F)Cl)C(F)(F)Cl)[nH]n1-c1ccccc1
### Response > 100 µM

### Prompt Lab note: need TGI with SK-OV-3 ovarian for entry COc1cc2cc[n+]3c4cc(OC)c(OC)cc4c(C)cc3c2cc1OC , please look it up.
### Response > 100 µM

### Prompt Entry COc1cc(C(C)c2cc3c(cc2OCCCCOc2cc4c(cc2C(C)c2cc(OC)c(OC)c(OC)c2)OCO4)OCO3)cc(OC)c1OC (centres undefined) , system SK-OV-3 ovarian: what TGI was measured?
### Response 91.8 µM

### Prompt # query: TGI | item CC(C)=CC(=O)OC1C2C(C)C(=O)OC2C(O)C(C)C2C=CC(=O)C21C (centres undefined) | system: SK-OV-3 ovarian
### Response 15.3 µM

### Prompt TGI of CSc1ccc2c(cc1=O)C(NC(=O)c1ccc(OC(C)=O)cc1)CCc1cc(O)c(O)c(O)c1-2 (centres undefined) on SK-OV-3 ovarian?
### Response 98.1 µM

### Prompt // fetch SK-OV-3 ovarian TGI for Cc1cc(-c2nc(-c3ccc(OC(F)(F)F)cc3)no2)nn1Cc1ccnc(N2CCN(C3CC3)CC2)c1
### Response > 100 µM

---

TGI reference
Tested on: NCI-H23 lung
Assay: NCI tumour cell line growth inhibition, 48 h

>  <MOLECULE>
C/C(=C\CCc1ccoc1)CC/C=C(\C)CCCN1CCC(CO)CC1

>  <PARAMETER MEASURED>
TGI

>  <VALUE>
14.7 µM

$$$$
>  <MOLECULE>
CC(=O)OCC1OC(OC2=C(CC=C(Cl)Cl)C(=O)c3ccccc3C2=O)C(OC(C)=O)C(OC(C)=O)C1OC(C)=O (configuration not stated)

>  <PARAMETER MEASURED>
TGI

>  <VALUE>
36.8 µM

$$$$
>  <MOLECULE>
COc1c(CNC(=O)CCl)cc2[nH]c(C)cc2c1CNC(=O)CCl

>  <PARAMETER MEASURED>
TGI

>  <VALUE>
31.3 µM

$$$$
>  <MOLECULE>
Cn1cc(C[C@@H](N)C(=O)O)c2ccccc21

>  <PARAMETER MEASURED>
TGI

>  <VALUE>
> 100 µM

$$$$
>  <MOLECULE>
COc1cc(C(C)c2cc3c(cc2OCCCCOc2cc4c(cc2C(C)c2cc(OC)c(OC)c(OC)c2)OCO4)OCO3)cc(OC)c1OC (configuration not stated)

>  <PARAMETER MEASURED>
TGI

>  <VALUE>
> 100 µM

$$$$
>  <MOLECULE>
O=C(O)C1CCCCN1C(=O)c1ccccc1 (configuration not stated)

>  <PARAMETER MEASURED>
TGI

>  <VALUE>
> 100 µM

$$$$

### Prompt Form field - read-out: TGI; system: NCI-H23 lung; submitted item: O=c1c2ccccc2nc(-c2ccccc2)n1NC(=S)Nc1ccc(Cl)cc1[N+](=O)[O-]
### Response > 100 µM

### Prompt Identify the measured TGI of N#Cc1cccc(NC(=O)c2oc3ccccc3c2-c2cnn(-c3ccccc3)c2)c1 for NCI-H23 lung.
### Response > 500 µM

### Prompt Report TGI for COc1cc2cc[n+]3c4cc(OC)c(OC)cc4c(C)cc3c2cc1OC tested on NCI-H23 lung.
### Response > 100 µM

### Prompt # returns recorded TGI (system: NCI-H23 lung) for CCOC(=O)C(=O)N=Nc1nc2c(O)c3ccccc3c(O)c2s1
### Response 4.91 µM

### Prompt Request: TGI, test system NCI-H23 lung, entry CC(C)c1cccc(C(C)C)c1NC(=O)C(=O)C(C(=O)c1ccc2ccccc2c1)C1OC(=O)c2ccccc21 (configuration not stated)
### Response > 100 µM

### Prompt Give the reported TGI for CC[O-].Cc1ccc2cccc([O-])c2n1.Cc1ccc2cccc([O-])c2n1.Cc1ccc2cccc([O-])c2n1.[Ti+4] (system: NCI-H23 lung).
### Response > 100 µM

### Prompt Field: TGI (NCI-H23 lung). Entry: O=c1cc(-c2ccccc2)oc2ccc(Oc3nnnn3-c3ccccc3)cc12
### Response > 93.2 µM

### Prompt Find TGI (NCI-H23 lung) for the entry Cc1cc2c(cc1C)[n+](=O)c(N1CCN(c3ccc([N+](=O)[O-])cc3)CC1)c(C#N)n2[O-]
### Response > 100 µM
